apparent KD of K4 kissing-loop reporter values by entry
- Test system: K4 kissing-loop RNA reporter
- assay.comment: apparent KD of K4 kissing-loop reporter; higher = weaker reporter binding
- measurement.parameters: Eterna round: R107; input ligand: arginine 13.2 mM
observed.property: apparent KD of K4 kissing-loop reporter (nM)

UCGGGAGGCCGAAGGAGCGCCGCCAGUGAUGUUGGGAGUUAGAUACCAGUGAUGUUGGGCCGGCAGGUAGGUCGCGGCCGCGGAU [Exclusion Arginine B Gf 18] : 106
AUGGUUGUCGUAGGAUAUGUAGGAUAUUCCUAUAGCAGUGAUGUUGCUAAUAUCAAUGGAAGAAGGACAGAAGGACGAUAACCAC [KL-SSFMN-B3 #analogue #DoubleAptamer] : 120
GGCAGUGAUGUUGCCAGUGGCAGAUGCGAAGGAGCGCAGUGAGAUGCAGGUAGGUCGCGCAUUGAAAUUGCUGUCACUAAAAUGC [#2] : 369
GUGGGCAUAGCAGGAUAUCCAUAUUAACAGGAGUCCUCGCCAGUGAUGUUGGAAAGGUACCGGAGUGGAGAAGGGCUCCUACGUA [Anbiratien] : 782
CAUAGGAAACUAUGUAUCUCUCUUACUGAAGGAGCGCGUGAAAACGCAGGUAGGUCGCAGAAUUUAAUAGAGAGUGAUGUUCUCU [Ex Arginine A K4 7] : 202
UUCUAGCCGAAAGGCUAGUCGGCUUCAGAUACCAGUCGCGAAAGCGACCCUUGGCAGCUGUGUAGUGAUGUUGCAAAGAAAGCCG : 435
AACUGCCAAGGAACAUUGUAAGAAGGUGAUACCAGCAUCGAAAGAUGCCCUUGGCAGCACCAACUUGCAGUGAUGUUGCAAGUAA [Design5] : 156
AAUAUAGUGAUGUUAUAUAAGAAGGAGUUACGAGGACCGGUACGGCCGCCACUCGAAACGAGUGAGGGUUUGGGAGAUUGGGCCC [SSTryptA.J] : 310
AACUGGGUUCGUGAUACCAGCUCACACAUGAGUGAUGUUCAUGUAGUGGGCAAAAUGUGGAGCCCUUGGCAGCACUGUGACCACG [XTheo-B2] : 69
UUUUUCGCGUUUGAUACCAGCAGAGUUGUUCGUGUCUGGAACAUGAGUGAUGUUCAUGUCUGCCCUUGGCAGCAAACGGGAGAAG [KL-XTheo-B13] : 112
GGUCCGGGCUCGGCCGCCACUCCCUCCUGCCGUAAGGUGGGAUACCGAGUGAUGUUCGGUUGGAGGAGGACCGGGAGCCCGGACC [#2 Exclusion - Tryptophan B Attempt #15 (HarryS)] : 113
GUAUCGCUAGGAGGAUAUUUCAAUUUGACUCUUUGAGUUAAUACGGAGUGAUGUUCCGAUUUACGGAAAGAAGGCCUAGUGAUAC [FMN B 13] : 203

---

- Test system: K4 kissing-loop RNA reporter;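 note: bound reporter read as fluorescence of individual clusters on recovered sequencing chips by microscopy, with normalized cluster intensities fitted with a binding model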
- assay.comment: apparent KD of K4 kissing-loop reporter; higher = weaker reporter binding
- measurement.parameters: Eterna round: R107; input ligand: arginine 13.2 mM
Binning rule for recorded apparent KD of K4 kissing-loop reporter: lower band (below 0.2 µM), central band (0.2 µM to below 0.4 µM), upper band (0.4 µM or more)

GCGUCUUGGUCGGCCGCCACUGAGCCUAGUCACACUCUUGAGUGAUGUUGAAGAUGGUGGACUUGCAGGACCGGGACCACGGACG [theeternabot_sameState_KL_Trp_B_41] : upper band
GGUUUAUAGGAGGAUACCAGUACGGAUAAAGUACGUUAAUAGUAGAGUGAUGUUCUAAAGUACCCUUGGCAGCUUAGAGUGAGUU [ExTheophylB.L] : lower band
GCCGCCGCGGCAGGAUAUAGGUUCAUGGAGUGAUGUUCCAUAACCCGAGUGAUGUUCGUUAUCCGCCUAGAAGGGCCGCGGCGGC : lower band
UUGGGCAGUGAUGUUGGCUAGGCCACAGAUACCAGACGCAUGCACGUCCCUUGGCAGCUGCGAAAGUUAGACUUGUAAUGAUAGU [theeternabot_sameState_KL_Theo_A_45] : lower band
AGAAGAUAUCAAGAUACCAGCUCCCGGCCCAAAACCCAGAUACACGAGUGAUGUUCGUUCAGCCCUUGGCAGCUUGCCUAGUUCU [theeternabot_sameState_KL_Theo_B_6] : lower band
GGUGCUGUCUGUGCCGCCUUCCUCGUUCCUCGAGGACCGGUACGGCCGCCACUCGAGUGAUGUUUGGGUAGCGAUCCCUGCUAGC [Bdazzled - #15 Exc. Tryptophan A] : upper band
AAGCAGUCACUCGAAACCAUCGAAGAUGGUCGAGGACCGGUACGGCCGCCACUCGGAGUGAUGUUCCGAAGACUGCAAAAUAAAA [#SwitchBubble 10] : central band
UCCUGUUGUCAGCCACGAAAGUGGAUUGAUACCAGAGUCGAAAGACUCCCUUGGCAGCGAGUGAUGUUCGCAGCAGGUAAAUAAA [MatMod 4 - Jieux - Exclusion - Theophylline A] : lower band
CCGGAGGAAGUCGCUUUUCCUGUGGCAUAGAAGGAUAUCCAAUUAAGGAGAAGGUCUAUCUGCCUUAGUGAUGUUAGGAAGUAGA [theeternabot_sameState_KL_FMN_A_23] : lower band
CGGCUCAAUCCUAGUAUUAAGAGGGAGUUGCGAGGACCGGUACGGCCGCCACUCGAAGUAGUUUGGCCAGUGAUGUUGGUCUUAC [Mabeleon] : lower band
GCAGUGAUGUUGCGGAUGUACAGUGGAGUGCGAGGACCGGUACGGCCGCCACUCGUACAGAACAAGCUAAUACAUCGAUAGGUGA [XI] : central band
GGAUGGUAGGCGGCCGCCACUAAAACUGAACACAUACAAACCAGUGAUGUUGGUAUGAUGAAGUAUAGGACCGGGCCUAGAUAGA [Exclusion - Tryptophan B (Freestyle 2)] : upper band
